The values you see were collected from patent US20130011412A1.

Target: T1, recombinant human lymphotoxin-α homotrimer (human LTα3) (human, UniProt P01374 35-205)
T1 construct: Coated on plates in the ELISAs; also called rhLTα; lymphotoxin-α3 trimer
T1 sequence (looked up): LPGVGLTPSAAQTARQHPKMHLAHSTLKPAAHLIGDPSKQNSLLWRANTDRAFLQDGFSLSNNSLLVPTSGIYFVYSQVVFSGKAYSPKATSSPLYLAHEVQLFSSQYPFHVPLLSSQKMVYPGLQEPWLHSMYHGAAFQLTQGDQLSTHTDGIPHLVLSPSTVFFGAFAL
Assay: plate-based ELISA against LTα
# relative binding (EC50 of the variant / EC50 of version 5) listing for each entry below
measurementType: relative binding (EC50 of the variant / EC50 of version 5) (ratio)

>>> valueobserved("3F12 version 27 (3F12.v5 with N58A, CDR-H2) (antibody, IgG1, V domains shown, Alanine-scan variant of 3F12.v5; human kappa / IgG1) VH: EVQLVESGGGLVQPGGSLRLSCAASGYTFSSYWIEWVRQAPGKGLEWVGEISPGSGSTAYNEEFKGRATFSADNSKNTAYLQMNSLRAEDTAVYYCADGYHGYWGQGTLVTVSS VL: DIQMTQSPSSLSASVGDRVTITCKSSQSLLYSTNQKNFLAWYQQKPGKAPKLLIYWASTRDSGVPSRFSGSGSGTDFTLTISSLQPEDFATYYCQQYYSYPRTFGQGTKVEIK")
1.7
>>> valueobserved("3F12 version 17 (3F12.v5 with F38A, CDR-L1) (antibody, IgG1, V domains shown, Alanine-scan variant of 3F12.v5; human kappa / IgG1; also called 3F12 clone 17) VH: EVQLVESGGGLVQPGGSLRLSCAASGYTFSSYWIEWVRQAPGKGLEWVGEISPGSGSTNYNEEFKGRATFSADNSKNTAYLQMNSLRAEDTAVYYCADGYHGYWGQGTLVTVSS VL: DIQMTQSPSSLSASVGDRVTITCKSSQSLLYSTNQKNALAWYQQKPGKAPKLLIYWASTRDSGVPSRFSGSGSGTDFTLTISSLQPEDFATYYCQQYYSYPRTFGQGTKVEIK")
0.32
>>> valueobserved("3F12 version 28 (3F12.v5 with Y59A, CDR-H2) (antibody, IgG1, V domains shown, Alanine-scan variant of 3F12.v5; human kappa / IgG1) VH: EVQLVESGGGLVQPGGSLRLSCAASGYTFSSYWIEWVRQAPGKGLEWVGEISPGSGSTNANEEFKGRATFSADNSKNTAYLQMNSLRAEDTAVYYCADGYHGYWGQGTLVTVSS VL: DIQMTQSPSSLSASVGDRVTITCKSSQSLLYSTNQKNFLAWYQQKPGKAPKLLIYWASTRDSGVPSRFSGSGSGTDFTLTISSLQPEDFATYYCQQYYSYPRTFGQGTKVEIK")
2.73
>>> valueobserved("3F12 version 13 (3F12.v5 with Y31A, CDR-L1) (antibody, IgG1, V domains shown, Alanine-scan variant of 3F12.v5; human kappa / IgG1) VH: EVQLVESGGGLVQPGGSLRLSCAASGYTFSSYWIEWVRQAPGKGLEWVGEISPGSGSTNYNEEFKGRATFSADNSKNTAYLQMNSLRAEDTAVYYCADGYHGYWGQGTLVTVSS VL: DIQMTQSPSSLSASVGDRVTITCKSSQSLLASTNQKNFLAWYQQKPGKAPKLLIYWASTRDSGVPSRFSGSGSGTDFTLTISSLQPEDFATYYCQQYYSYPRTFGQGTKVEIK")
3.4
